Target: T1, Human IL2Rγ extracellular domain expressed with a C-terminal myc-myc-hexahistidine tag (human)
T1 construct: also called hIL-2Rg-MMH; hIL-2RG-MMH
T1 chain: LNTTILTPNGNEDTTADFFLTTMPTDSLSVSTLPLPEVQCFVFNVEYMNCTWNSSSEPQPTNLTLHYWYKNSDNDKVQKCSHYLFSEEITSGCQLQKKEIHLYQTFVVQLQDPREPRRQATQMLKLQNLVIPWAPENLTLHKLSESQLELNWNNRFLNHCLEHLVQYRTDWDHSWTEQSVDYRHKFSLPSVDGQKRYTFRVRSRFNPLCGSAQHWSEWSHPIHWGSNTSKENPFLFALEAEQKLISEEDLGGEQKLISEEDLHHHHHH
Test: SPR Biacore 4000, mAb captured by anti-hFc, HBS-ET, 37C
MEASURED PARAMETER: 100 nM Ag Bound (RU)
Answers are plain numbers, in RU.

Below: 4 binders and their reported 100 nM Ag Bound.
[
  {
    "BINDER": "H4H13538P (antibody, human IgG4 S228P, kappa, V domains shown, anti-IL2Rγ monoclonal antibody expressed with human IgG4 Fc) VH: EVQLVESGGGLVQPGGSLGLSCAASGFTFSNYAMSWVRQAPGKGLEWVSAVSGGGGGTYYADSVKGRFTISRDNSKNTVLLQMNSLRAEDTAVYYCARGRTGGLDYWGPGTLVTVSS VL: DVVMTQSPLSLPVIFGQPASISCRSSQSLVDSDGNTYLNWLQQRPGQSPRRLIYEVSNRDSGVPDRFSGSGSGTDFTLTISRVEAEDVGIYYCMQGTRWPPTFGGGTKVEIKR",
    "MEASURED PARAMETER": "100 nM Ag Bound",
    "MEASUREMENT": 99
  },
  {
    "BINDER": "H4H13541P (antibody, human IgG4 S228P, kappa, V domains shown, anti-IL2Rγ monoclonal antibody expressed with human IgG4 Fc) VH: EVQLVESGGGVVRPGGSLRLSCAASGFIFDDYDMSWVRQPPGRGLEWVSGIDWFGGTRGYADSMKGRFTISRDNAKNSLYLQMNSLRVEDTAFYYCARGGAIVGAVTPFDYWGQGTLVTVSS VL: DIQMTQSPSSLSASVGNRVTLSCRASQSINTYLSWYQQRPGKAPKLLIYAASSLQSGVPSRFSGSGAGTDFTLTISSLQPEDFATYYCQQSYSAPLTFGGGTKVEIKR",
    "MEASURED PARAMETER": "100 nM Ag Bound",
    "MEASUREMENT": 103
  },
  {
    "BINDER": "H4H12863P (antibody, human IgG4 S228P, kappa, V domains shown, anti-IL2Rγ monoclonal antibody expressed with human IgG4 Fc) VH: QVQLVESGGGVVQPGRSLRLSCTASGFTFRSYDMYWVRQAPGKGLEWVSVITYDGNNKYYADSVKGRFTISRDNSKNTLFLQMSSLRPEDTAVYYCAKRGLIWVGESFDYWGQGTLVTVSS VL: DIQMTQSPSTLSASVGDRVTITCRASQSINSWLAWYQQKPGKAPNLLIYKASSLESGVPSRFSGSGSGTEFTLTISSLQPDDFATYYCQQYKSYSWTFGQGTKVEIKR",
    "MEASURED PARAMETER": "100 nM Ag Bound",
    "MEASUREMENT": 77
  },
  {
    "BINDER": "H4H12889P (antibody, human IgG4 S228P, kappa, V domains shown, anti-IL2Rγ monoclonal antibody expressed with human IgG4 Fc; also called REGN7257) VH: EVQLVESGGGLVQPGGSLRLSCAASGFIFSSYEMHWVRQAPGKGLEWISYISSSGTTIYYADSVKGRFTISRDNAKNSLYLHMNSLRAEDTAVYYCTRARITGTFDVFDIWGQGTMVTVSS VL: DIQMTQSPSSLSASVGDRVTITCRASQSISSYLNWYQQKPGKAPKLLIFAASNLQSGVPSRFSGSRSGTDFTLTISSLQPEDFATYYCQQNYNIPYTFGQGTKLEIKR",
    "MEASURED PARAMETER": "100 nM Ag Bound",
    "MEASUREMENT": 32
  }
]

# next binder below
Ask | Look at this binder and give its reported 100 nM Ag Bound. H4H12858P (antibody, human IgG4 S228P, kappa, V domains shown, anti-IL2Rγ monoclonal antibody expressed with human IgG4 Fc; also called REGN9433) VH: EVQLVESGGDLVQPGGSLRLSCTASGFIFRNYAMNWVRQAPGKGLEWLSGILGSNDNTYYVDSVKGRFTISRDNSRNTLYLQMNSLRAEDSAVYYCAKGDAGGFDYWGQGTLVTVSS VL: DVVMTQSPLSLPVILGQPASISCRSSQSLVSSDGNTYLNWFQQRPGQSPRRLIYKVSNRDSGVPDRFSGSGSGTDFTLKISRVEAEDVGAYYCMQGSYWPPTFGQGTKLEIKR
Reply | 57
